target-or-system: T1, Δ14ArtA (Staphylococcus aureus plasmid pSK41, UniProt Q52270 15-62, del1-14)
T1 chain: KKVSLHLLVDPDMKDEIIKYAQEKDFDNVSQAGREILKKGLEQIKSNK
assay-remarks: fluorescence polarization
value-kind: Kd (nM)

binder: 11-mer consensus (dsDNA) DNA 1: ACATGACATGT DNA 2: ACATGTCATGT
value-kind: Kd
reported: 222
--
binder: PtraA operator (dsDNA) DNA 1: TTACATGACATGACATGTAATAC DNA 2: GTATTACATGTCATGTCATGTAA
value-kind: Kd
reported: 52
--
binder: 22-mer operator (dsDNA) DNA 1: CAAACATGATATGACATGTAAT DNA 2: ATTACATGTCATATCATGTTTG
value-kind: Kd
reported: 58
--
binder: PtraL operator (dsDNA) DNA 1: TGCATTACATGACATGACATGTAAT DNA 2: ATTACATGTCATGTCATGTAATGCA
value-kind: Kd
reported: 39
--
binder: 16-mer consensus (dsDNA) DNA 1: ACATGACATGACATGT DNA 2: ACATGTCATGTCATGT
value-kind: Kd
reported: 58
--
binder: PartA operator (dsDNA) DNA 1: TTGTCATGACATGTCATGTGTAA DNA 2: TTACACATGACATGTCATGACAA
value-kind: Kd
reported: 41

Source listed as paper PMC2777438.
